Where do these numbers come from? They come from patent US20100022559A1.

Task for the reader: assign each of the following compounds its reported logP.
# experimental_protocol: logP determination by HPLC on a reversed-phase column (C 18), EEC Directive 79/831 Annex V.A8
# Format: physicochemical
# setup_conditions: value marked [b]

Prompt: What measured logP goes with `CC(=NOCC(C)(C)CON=C(C)c1csc(C)n1)c1csc(C)n1` ?
Completion: 3.99^[b]

Prompt: Continue with `CC(=NOCC(C)(C)CON=C(C)c1cccc(C)n1)c1cccc(Cl)c1`
Completion: 6.22^[b]

Prompt: Continue with CC(=NOCC1(CON=C(C)c2cc(C)cc(C)n2)COC(=O)N1)c1cc(C)cc(C)n1 (stereo not shown)
Completion: 1.43^[b]

Prompt: Continue with `C=C(CON=C(C)c1cccc(C)n1)CON=C(CCC)c1cccc(C)n1`
Completion: 4.87^[b]

Prompt: Continue with `C=C(CON=C(C)c1cccc(C)n1)CON=C(c1ccccc1)c1cccc(C)n1`
Completion: 3.65^[b]

Prompt: Continue with CC(=O)OCC#Cc1cc(C)nc(C(C)=NOCC(C)CON=C(C)c2cc(C#CCOC(C)=O)cc(C)n2)c1 (stereo not shown)
Completion: 6.25^[b]

Prompt: Continue with C=C(CON=C(C)c1ccc2c(c1)CC(C)O2)CON=C(C)c1cccc(C)n1 (stereo not shown)
Completion: 4.85^[b]

Prompt: Continue with `CCc1cccc(C(C)=NOCCCCON=C(C)c2cccc(C)n2)n1`
Completion: 4.72^[b]

Prompt: Continue with `C=C(CON=C(C)c1nc(C)ccc1OC)CON=C(C)c1nc(C)ccc1OC`
Completion: 2.05^[b]

Prompt: Continue with CCC(CC)(CON=C(C)c1nc(C)ccc1C)CON=C(C)c1nc(C)ccc1C [compound 882]
Completion: 3.90^[b]

Prompt: Continue with CCC(=NOCCCCCCON=C(C)c1cccc(C)n1)c1ncccc1C [compound 343]
Completion: 4.87^[b] (isomer B)

Prompt: Continue with CC(=NOC/C=C/CON=C(C)c1nc(C)c(C)s1)c1nc(C)c(C)s1 (single isomer, unassigned) [compound 767]
Completion: 4.92^[b] (isomer B)

Prompt: Continue with `CC(=NOCC(C)(C)CON=C(C)c1cccc(C)n1)c1ccncc1`
Completion: 2.41^[b]

Prompt: Continue with CCCC(=NOCCCCON=C(C)c1cccc(C)n1)c1ncccc1C (single isomer, unassigned)
Completion: 3.61^[b] (isomer A)

Prompt: Continue with CC(=NOc1nc(Cl)nc(ON=C(C)c2cccc(C)n2)c1Cl)c1cccc(C)n1 (single isomer, unassigned) [compound 779]
Completion: 4.62^[b]

Prompt: Continue with CC(=NOC/C=C/CON=C(C)c1nc(C)c(C)s1)c1nc(C)c(C)s1 (single isomer, unassigned) [compound 766]
Completion: 5.08^[b] (isomer A)

====

Task for the reader: assign each of the following compounds its reported logP.
# experimental_protocol: logP determination by HPLC on a reversed-phase column (C 18), EEC Directive 79/831 Annex V.A8
# Format: physicochemical
# setup_conditions: method marked [b] in Table 1

Prompt: What measured logP goes with `COCc1nc(/C(N)=N/OCc2cccc(CO/N=C(\N)c3nc(COC)c(C)c(COC)n3)c2)nc(COC)c1C` ?
Completion: 2.06^[b]

Prompt: Continue with CC(=NOCC1(CON=C(C)c2cc(C)cc(C)n2)CC(C(C)(C)C)=NO1)c1cc(C)cc(C)n1 (stereo not shown)
Completion: 2.62^[b]

Prompt: Continue with `C(=NOCCON=Cc1ccccn1)c1ccccn1`
Completion: 1.68^[b]

Prompt: Continue with CCC(CON=C(C)c1nc(C)ccc1C)CON=C(C)c1nc(C)ccc1C (single isomer, unassigned) [compound 750]
Completion: 2.57^[b]

====

Task for the reader: assign each of the following compounds its reported logP.
# experimental_protocol: logP determination by HPLC on a reversed-phase column (C 18), EEC Directive 79/831 Annex V.A8
# Format: physicochemical
# setup_conditions: method marked [b] in Table 1

Prompt: What measured logP goes with C=C(CON=Cc1cccc(C)n1)CON=Cc1cccc(C)n1 (single isomer, unassigned) [compound 662] ?
Completion: 2.16^[b] (isomer B)

Prompt: Continue with CC(=NOCC(CON=C(C)c1ccc(C)c(C)n1)Cc1ccccc1)c1ccc(C)c(C)n1 (stereo not drawn)
Completion: 5.01^[b]

Prompt: Continue with CC(=NOCC(CON=C(C)c1cc(C)cc(C)n1)C(C)C)c1cc(C)cc(C)n1 (stereo not drawn)
Completion: 3.12^[b]

Prompt: Continue with C=C(CON=Cc1cc(C(F)(F)F)cc(C)n1)CON=C(C)c1cccc(C)n1 (mixture of isomers)
Completion: 4.61^[b]

Prompt: Continue with `CC(C)=CC1=NOC(CO/N=C(\C)c2ccc(C)c(C)n2)(CO/N=C(\C)c2ccc(C)c(C)n2)C1`
Completion: 3.46^[b]

Prompt: Continue with CCCC1=NOC(CON=C(CCC)c2cccc(C)n2)(CON=C(CCC)c2cccc(C)n2)C1 (stereo not drawn)
Completion: 5.71^[b]

Prompt: Continue with CCC(=NOCC1(CON=C(CC)c2cccc(C)n2)CC(C(C)C)=NO1)c1cccc(C)n1 (stereo not drawn)
Completion: 4.67^[b]

Prompt: Continue with CC(=NOCC1(CON=C(C)c2cc(C)cc(C)n2)CC(c2cccc(Cl)c2)=NO1)c1cc(C)cc(C)n1 (stereo not drawn)
Completion: 3.28^[b]

Prompt: Continue with CC(=NOCCCCON=C(C)c1sc(C)nc1C)c1cccc(C)n1 (single isomer, unassigned)
Completion: 3.56^[b] (isomer A)

Prompt: Continue with CC(=NOCC(CON=C(C)c1nc(C)ccc1C)Cc1ccccc1)c1nc(C)ccc1C (stereo not drawn)
Completion: 4.15^[b]

Prompt: Continue with `CC(=NOCc1cccc(CON=C(C)c2nc(C)c(C)s2)c1)c1nc(C)c(C)s1`
Completion: 5.71^[b]

Prompt: Continue with `CC(=NOC(=O)N(C)C(=O)ON=C(C)c1cccc(C)n1)c1cccc(C)n1`
Completion: 2.57^[b]

Prompt: Continue with C=C(CON=C(C)c1cccc(C)n1)CON=C(C)c1sc(C)nc1C (single isomer, unassigned) [compound 545]
Completion: 3.58^[b] (isomer B)

Prompt: Continue with `CC(=NOCC#CCON=C(C)c1cccc(C)n1)c1cccc(C)n1`
Completion: 3.12^[b]

Prompt: Continue with `CC(=NOCC(C)(C)CON=C(CC(C)C)c1cccc(C)n1)c1cccc(C)n1`
Completion: 6.47^[b]

Prompt: Continue with CCC(=NOCC1(CON=C(CC)c2cccc(C)n2)CC(c2ccc(Cl)cc2)=NO1)c1cccc(C)n1 (stereo not drawn)
Completion: 5.84^[b]

Prompt: Continue with CC(=NOCC(CON=C(C)c1nc(C)ccc1C)C(C)(C)C)c1nc(C)ccc1C (single isomer, unassigned) [compound 757]
Completion: 5.09^[b]

Prompt: Continue with CCCC(=NOCC(C)CON=C(C)c1cccc(C)n1)c1ncccc1C (single isomer, unassigned) [compound 549]
Completion: 4.68^[b] (isomer B)

Prompt: Continue with `N/C(=N\OCc1ccccc1CO/N=C(\N)c1nc(C2CC2)cc(C2CC2)n1)c1nc(C2CC2)cc(C2CC2)n1`
Completion: 3.85^[b]

Prompt: Continue with CC(=NOCC1(CON=C(C)c2ccc(C)c(C)n2)CC(c2ccc(Cl)cc2)=NO1)c1ccc(C)c(C)n1 (stereo not drawn)
Completion: 4.51^[b]

Prompt: Continue with C=C(CON=Cc1cccc(C)n1)CON=Cc1cccc(C)n1 [compound 667]
Completion: 2.16^[b]

Prompt: Continue with CC(=NOCCC(C)ON=C(C)c1nc(C)ccc1C)c1nc(C)ccc1C (single isomer, unassigned) [compound 758]
Completion: 2.13^[b]

Prompt: Continue with `CC(=NOCC1(CON=C(C)c2cc(C)cc(C)n2)CC1)c1cc(C)cc(C)n1`
Completion: 2.11^[b]

Prompt: Continue with `Cc1nc(/C(N)=N/OCc2ccc(CO/N=C(\N)c3nc(C)c4c(n3)CCCC4)cc2)nc2c1CCCC2`
Completion: 3.09^[b]

Prompt: Continue with CCC(=NOCC1(CON=C(CC)c2cccc(C)n2)CC(c2cccc(Cl)c2)=NO1)c1cccc(C)n1 (stereo not drawn)
Completion: 5.84^[b]

Prompt: Continue with CC(C)=CC1=NOC(CON=C(C)c2cc(C)cc(C)n2)(CON=C(C)c2cc(C)cc(C)n2)C1 (stereo not drawn)
Completion: 2.48^[b]

Prompt: Continue with `N/C(=N\OCc1ccc(CO/N=C(\N)c2nc(C3CC3)cc(C3CC3)n2)cc1)c1nc(C2CC2)cc(C2CC2)n1`
Completion: 3.76^[b]

Prompt: Continue with C=C(CON=C(C)c1cccc(C)n1)CON=C(C)c1sc(C)nc1C (single isomer, unassigned) [compound 544]
Completion: 3.00^b] (Isomer A)

Prompt: Continue with CC(=NOCC1(CON=C(C)c2cccc(C)n2)CC(CC(C)C)=NO1)c1cccc(C)n1 (stereo not drawn)
Completion: 3.89^[b]

Prompt: Continue with `CC(=NOCC1(CON=C(C)c2cc(C)cc(C)n2)CCCC1)c1cc(C)cc(C)n1`
Completion: 3.35^[b]
